Reported log2 ratio of Biotin-Ahx-Ub-VS probe labelling values are given for each entry in this list.
- Study system: FAM105A (UniProt Q9NUU6)
- Sequence (Q9NUU6 whole entry, the tested form may be a part): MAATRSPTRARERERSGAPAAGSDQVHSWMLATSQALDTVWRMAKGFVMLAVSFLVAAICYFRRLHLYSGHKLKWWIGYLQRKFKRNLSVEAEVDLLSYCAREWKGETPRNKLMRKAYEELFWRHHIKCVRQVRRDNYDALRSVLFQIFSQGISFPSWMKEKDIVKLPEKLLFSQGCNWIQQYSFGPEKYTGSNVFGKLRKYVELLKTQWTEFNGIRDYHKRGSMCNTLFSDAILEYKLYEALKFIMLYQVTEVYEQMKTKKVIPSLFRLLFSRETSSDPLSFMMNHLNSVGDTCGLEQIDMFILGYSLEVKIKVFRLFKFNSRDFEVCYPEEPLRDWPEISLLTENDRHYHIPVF
- Experiment: log2 ratio of Biotin-Ahx-Ub-VS probe labelling (fragment/DMSO); higher = less target engagement (more negative = stronger competition), active = hit call of the paper (q ≤ 0.05, log2 ratio ≤ -1)
- Stated conditions: compound concentration: 200 uM; treatment time: 3 h
No unit in the answer, only the number.

1) COc1ccccc1C(C)NC(=O)CCl (centres undefined): -0.0799

Challenge: Item under review: O=C(CCl)N1CCOC(c2cccc(F)c2)C1 (centres undefined) . Reported log2 ratio of Biotin-Ahx-Ub-VS probe labelling?
Response given: -0.167

Challenge: // next record Cc1ccc(CNC(=O)CCl)nc1C.Cl
Response given: -0.225

Challenge: // next record Cc1ccccc1CN(C)C(=O)CCl
Response given: -0.463

Challenge: // next record Cc1cc(Cl)ccc1NC(=O)CCl
Response given: 0.174

Challenge: // next record CN(C)C(=O)c1ccc(CNC(=O)CCl)cc1
Response given: 0.248

Challenge: // next record O=C(CCl)N1CCC(S(=O)(=O)c2ccc(F)cc2)CC1
Response given: -0.39

Challenge: // next record O=C(CCl)N1CCC[C@@H]1c1ccon1
Response given: 0.198

Challenge: // next record CCC1c2ccsc2CCN1C(=O)CCl (centres undefined)
Response given: 0.09

Challenge: // next record Cc1conc1C1CN(C(=O)CCl)C1
Response given: 0.111

Challenge: // next record CN(C)C(=O)c1ccc(NC(=O)CCl)cc1
Response given: 0.105
